Readings of IC50 for the listed molecules
Tested on: OCI-AML2
EXPERIMENT: Antitumor activity against human OCI-AML2 cells after 3 days by WST1 assay
Format: functional, cell-based
EXPERIMENTAL_CONDITIONS: OCI-AML2, 72 h

- MOLECULE: "O=c1[nH]c(=O)n([C@@H]2O[C@H](CO)[C@@H](O)[C@H]2O)c(I)c1F"
  IC50: "> 50 µM"
- MOLECULE: "[N-]=[N+]=Nc1c(F)c(=O)[nH]c(=O)n1[C@@H]1O[C@H](CO)[C@@H](O)[C@H]1O"
  IC50: "0.7 µM"
- MOLECULE: "Nc1c(F)c(=O)[nH]c(=O)n1[C@@H]1O[C@H](CO)[C@@H](O)[C@H]1O"
  IC50: "0.9 µM"
- MOLECULE: "N#Cc1cc(=O)[nH]c(=O)n1[C@@H]1O[C@H](CO)[C@@H](O)[C@H]1O"
  IC50: "> 50 µM"
- MOLECULE: "Cc1cc(=O)[nH]c(=O)n1[C@@H]1O[C@H](CO)[C@@H](O)[C@H]1O"
  IC50: "> 50 µM"

Can you share its IC50? I mean this molecule: O=Cc1c(F)c(=O)[nH]c(=O)n1[C@@H]1O[C@H](CO)[C@@H](O)[C@H]1O
0.7 µM

Can you share its IC50? I mean this molecule: CNc1cc(=O)[nH]c(=O)n1[C@@H]1O[C@H](CO)[C@@H](O)[C@H]1O
> 50 µM

Can you share its IC50? I mean this molecule: COC(=O)c1cc(=O)[nH]c(=O)n1[C@@H]1O[C@H](CO)[C@@H](O)[C@H]1O
> 50 µM

Can you share its IC50? I mean this molecule: CN(C)c1cc(=O)[nH]c(=O)[nH]1
> 50 µM

Can you share its IC50? I mean this molecule: O=c1cc(O)n([C@@H]2O[C@H](COP(=O)(O)O)[C@@H](O)[C@H]2O)c(=O)[nH]1
> 50 µM

Can you share its IC50? I mean this molecule: CC(=O)OC[C@H]1O[C@@H](n2c(I)cc(=O)[nH]c2=O)[C@H](O)[C@@H]1O
11.7 µM

Can you share its IC50? I mean this molecule: O=c1cc(NO)n([C@@H]2O[C@H](CO)[C@@H](O)[C@H]2O)c(=O)[nH]1
> 50 µM

Can you share its IC50? I mean this molecule: O=Cc1cc(=O)[nH]c(=O)n1[C@@H]1O[C@H](CO)[C@@H](O)[C@H]1O
> 50 µM

Can you share its IC50? I mean this molecule: O=c1cc(I)n([C@@H]2O[C@H](CO)[C@@H](O)[C@H]2O)c(=O)[nH]1
> 50 µM

Can you share its IC50? I mean this molecule: O=c1cnn([C@@H]2O[C@H](COP(=O)(O)O)[C@@H](O)[C@H]2O)c(=O)[nH]1 [6-AZA-URIDINE MONOPHOSPHATE]
16 µM

----------
ASSAY_SYSTEM: Orotidine 5'-phosphate decarboxylase (Methanobacterium thermoautotrophicum, UniProt O26232)
Sequence (O26232 whole entry): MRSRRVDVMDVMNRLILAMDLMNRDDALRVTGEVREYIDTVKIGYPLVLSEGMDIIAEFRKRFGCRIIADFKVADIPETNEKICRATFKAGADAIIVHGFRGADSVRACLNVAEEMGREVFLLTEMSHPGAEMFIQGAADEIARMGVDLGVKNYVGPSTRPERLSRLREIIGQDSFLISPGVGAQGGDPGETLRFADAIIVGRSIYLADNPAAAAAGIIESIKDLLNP
Threshold-based label: Ki under 0.4 µM gives Criterion met, Ki not under 0.4 µM gives Criterion not met.

Use these answered entries as a reference point.
- INPUT_SMILES: "[N-]=[N+]=Nc1cc(=O)[nH]c(=O)n1[C@@H]1O[C@H](COP(=O)(O)O)[C@@H](O)[C@H]1O"
  DISCRETE_LABEL: "Criterion met"
- INPUT_SMILES: "[N-]=[N+]=Nc1c(F)c(=O)[nH]c(=O)n1[C@@H]1O[C@H](COP(=O)(O)O)[C@@H](O)[C@H]1O"
  DISCRETE_LABEL: "Criterion met"
- INPUT_SMILES: "O=c1[nH]c(=O)n([C@@H]2O[C@H](COP(=O)(O)O)[C@@H](O)[C@H]2O)cc1F"
  DISCRETE_LABEL: "Criterion not met"

Is Ki of Nc1c(F)c(=O)[nH]c(=O)n1[C@@H]1O[C@H](COP(=O)(O)O)[C@@H](O)[C@H]1O strictly below 0.4 µM?
Criterion not met

Is Ki of CCc1c(F)c(=O)[nH]c(=O)n1[C@@H]1O[C@H](COP(=O)(O)O)[C@@H](O)[C@H]1O strictly below 0.4 µM?
Criterion not met

----------
Tested on: PBMC
EXPERIMENT: Cytotoxicity against human PBMC cells by WST1 assay
Type: cell-based
METRIC: IC50

- INPUT_SMILES: "[N-]=[N+]=Nc1c(F)c(=O)[nH]c(=O)n1[C@@H]1O[C@H](CO)[C@@H](O)[C@H]1O"
  ASSAY_SYSTEM: "PBMC"
  MEAS_VALUE: "> 10 µM"

Can you share its IC50? I mean this molecule: Nc1c(F)c(=O)[nH]c(=O)n1[C@@H]1O[C@H](CO)[C@@H](O)[C@H]1O
> 10 µM

----------
Tested on: COLO 205
EXPERIMENT: Antitumor activity against human COLO205 cells after 3 days by WST1 assay
Type: functional, cell-based
EXPERIMENTAL_CONDITIONS: COLO 205, 72 h
pIC50: −log10 of the molar value.
METRIC: pIC50

These solved cases illustrate the format of a correct answer.
- COMPOUND: "O=c1cnn([C@@H]2O[C@H](COP(=O)(O)O)[C@@H](O)[C@H]2O)c(=O)[nH]1 [6-AZA-URIDINE MONOPHOSPHATE]"
  pIC50: "< 4.30"
- COMPOUND: "O=c1cc(I)n([C@@H]2O[C@H](CO)[C@@H](O)[C@H]2O)c(=O)[nH]1"
  pIC50: "< 4.30"
- COMPOUND: "CNc1cc(=O)[nH]c(=O)n1[C@@H]1O[C@H](CO)[C@@H](O)[C@H]1O"
  pIC50: "< 4.30"

Can you share its pIC50? I mean this compound: O=c1[nH]c(=O)n([C@@H]2O[C@H](CO)[C@@H](O)[C@H]2O)c(I)c1Br
< 4.30

Can you share its pIC50? I mean this compound: CN(C)c1cc(=O)[nH]c(=O)n1[C@@H]1O[C@H](CO)[C@@H](O)[C@H]1O
< 4.30

Can you share its pIC50? I mean this compound: Nc1c(F)c(=O)[nH]c(=O)n1[C@@H]1O[C@H](CO)[C@@H](O)[C@H]1O
5.48

----------
EXPERIMENT: Antitumor activity against human LOX cells after 3 days by WST1 assay
Format: functional, cell-based
EXPERIMENTAL_CONDITIONS: 72 h
pIC50: −log10 of the molar value.
Readings of pIC50 for the listed compounds

These solved cases illustrate the format of a correct answer.
- COMPOUND: "Nc1cc(=O)[nH]c(=O)n1[C@@H]1O[C@H](CO)[C@@H](O)[C@H]1O"
  pIC50: "< 4.30"
- COMPOUND: "CNc1cc(=O)[nH]c(=O)n1[C@@H]1O[C@H](CO)[C@@H](O)[C@H]1O"
  pIC50: "< 4.30"
- COMPOUND: "O=c1cc(I)n([C@@H]2O[C@H](CO)[C@@H](O)[C@H]2O)c(=O)[nH]1"
  pIC50: "< 4.30"

Can you share its pIC50? I mean this compound: O=c1cnn([C@@H]2O[C@H](COP(=O)(O)O)[C@@H](O)[C@H]2O)c(=O)[nH]1 [6-AZA-URIDINE MONOPHOSPHATE]
5.17

Can you share its pIC50? I mean this compound: [N-]=[N+]=Nc1cc(=O)[nH]c(=O)n1[C@@H]1O[C@H](CO)[C@@H](O)[C@H]1O
< 4.30

Can you share its pIC50? I mean this compound: CN(C)c1cc(=O)[nH]c(=O)[nH]1
< 4.30

Can you share its pIC50? I mean this compound: Cc1cc(=O)[nH]c(=O)n1[C@@H]1O[C@H](CO)[C@@H](O)[C@H]1O
< 4.30

Can you share its pIC50? I mean this compound: COC(=O)c1cc(=O)[nH]c(=O)n1[C@@H]1O[C@H](CO)[C@@H](O)[C@H]1O
< 4.30

----------
Readings of IC50 for the listed molecules
System: COLO 205
EXPERIMENT: Antitumor activity against human COLO205 cells after 3 days by WST1 assay
Format: functional, cell-based
EXPERIMENTAL_CONDITIONS: COLO 205, 72 h

These solved cases illustrate the format of a correct answer.
- INPUT_SMILES: "Cc1cc(=O)[nH]c(=O)n1[C@@H]1O[C@H](CO)[C@@H](O)[C@H]1O"
  METRIC: "IC50"
  MEAS_VALUE: "> 50 µM"
- INPUT_SMILES: "N#Cc1cc(=O)[nH]c(=O)n1[C@@H]1O[C@H](CO)[C@@H](O)[C@H]1O"
  METRIC: "IC50"
  MEAS_VALUE: "> 50 µM"

Can you share its IC50? I mean this molecule: CN(C)c1cc(=O)[nH]c(=O)[nH]1
> 50 µM
